Measured log10 ED50, listed per entry.
# Tested on: phenylquinone-induced writhing in mice
# METHOD_NOTES: Phenylquinone Writhing Test
# Format: in vivo, female white mice
# MEASUREMENT_CONTEXT: mouse; oral; effective analgesic dose for 50% of the mice; observed 10 minutes from 30 minutes after dosing
Parameter value (number): base-10 log of ED50 in mg/kg.

Examples with their reported log10 ED50 follow.
OC(c1cc(-c2ccccc2)c(-c2ccccc2)[nH]1)(C(F)(F)F)C(F)(F)F :: 2.13
OC(c1cc(-c2ccccc2)c(-c2cccnc2)[nH]1)(C(F)(F)F)C(F)(F)F :: 1.89
COc1ccc(-c2cc(C(C)(O)C(F)(F)F)[nH]c2-c2ccc(OC)cc2)cc1 (stereo not shown) :: 1.36
COc1ccc(-c2cc(C(O)(C(F)(F)F)C(F)(F)F)[nH]c2-c2ccc(OC)cc2)cc1 :: 0.72
COc1ccc(-c2cc(C(O)C(F)(F)F)[nH]c2-c2ccc(OC)cc2)cc1 (stereo not shown) :: 1.13
OC(c1cc(-c2ccc(F)cc2)c(-c2ccc(F)cc2)[nH]1)C(F)(F)C(F)(F)F (stereo not shown) :: 2.01

# query: log10 ED50 of entry "Cn1c(C(O)(C(F)(F)F)C(F)(F)F)cc(-c2ccc(F)cc2)c1-c1ccc(F)cc1"
1.65
